test system: biotinyl-Val-oxazolone; assay: self-aminoacylation, catalytic enhancement (BVO) (fold over background); higher = more active; k-Seq, kA / k0A0; sequences stand for … in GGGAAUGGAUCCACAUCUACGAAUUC…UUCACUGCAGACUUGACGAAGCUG
Variants at the floor of the assay were thinned out.
Think of 3 as a floor: if self-aminoacylation stands on it or above, it is MET; beneath it, NOT MET.

> print(dat)
                              residue.codes  discrete.label
1  UUACUUCAAACAAUCGCUCUG [Fam1A.1 aminoacylation ribozyme variant]         NOT MET
2  AUUCACCUAGGUCAUCGGGCU [Fam2.2 aminoacylation ribozyme variant]             MET
3  AUUACGAUGGUCAUCGAGUGA [Fam2.1 aminoacylation ribozyme variant]             MET
4  AUUAUCCUGGUAAUCGAGUGA [Fam2.1 aminoacylation ribozyme variant]             MET
5  AAGUUUUGUAAUAGUCGCAAG [Fam3.1 aminoacylation ribozyme variant]         NOT MET
6  AUGUUUGCUAAUAGUCGCGAG [Fam3.1 aminoacylation ribozyme variant]         NOT MET

---

system: biotinyl-Trp-oxazolone; test: self-aminoacylation, catalytic enhancement (BWO) (fold over background); higher = more active; k-Seq, kA / k0A0; sequences stand for … in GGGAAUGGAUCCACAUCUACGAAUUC…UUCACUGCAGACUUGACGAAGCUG
This sample holds only a part of the variants without activity.
Short version: self-aminoacylation at least 2 is criterion met, less is criterion not met.

> print(dat)
                               residue.codes     discrete.label
 1  AAGUUUGCUAAUAGUCCAAAG [Fam3.1 aminoacylation ribozyme variant]  criterion not met
 2  AUGCUUCAAACAAUCGGUCUG [Fam1A.1 aminoacylation ribozyme variant]      criterion met
 3  AAGUUUUCUAAUAGUAGCAAG [Fam3.1 aminoacylation ribozyme variant]  criterion not met
 4  CUACUUCAAACAAGCGGUCUA [Fam1A.1 aminoacylation ribozyme variant]  criterion not met
 5  AUUCAUCUAGGUCAUCGGGUA [Fam2.2 aminoacylation ribozyme variant]      criterion met
 6  CUACUUCAAACAAUCGGUAAG [Fam1A.1 aminoacylation ribozyme variant]  criterion not met
 7  AUUACCCUGGUCAUCGGGUAA [Fam2.1 aminoacylation ribozyme variant]      criterion met
 8  AAUCACCUAGGCCAUCGGGUG [Fam2.2 aminoacylation ribozyme variant]      criterion met
 9  AUUACCCUCGUCACCGAGUGA [Fam2.1 aminoacylation ribozyme variant]      criterion met
10  AAGUUUGCUAAUAGUCGCAAG [Fam3.1 aminoacylation ribozyme variant]      criterion met
11  AUUACCCUGGUCAUUGAGCGA [Fam2.1 aminoacylation ribozyme variant]  criterion not met
12  AUUACGCUGGUCCUCGAGUGA [Fam2.1 aminoacylation ribozyme variant]      criterion met
13  GCACACUUCAAGCAAUCGGCC [Fam1B.1 aminoacylation ribozyme variant]      criterion met
14  AUUAUCCUGGUAAUCGAGUGA [Fam2.1 aminoacylation ribozyme variant]      criterion met
15  GUACUUCAAACCAUCGGUCUG [Fam1A.1 aminoacylation ribozyme variant]  criterion not met
16  AUUCACCUAGGUCAUCUUGUG [Fam2.2 aminoacylation ribozyme variant]  criterion not met
17  CUUCUACAAACAAUCGGUCUG [Fam1A.1 aminoacylation ribozyme variant]  criterion not met
18  CCACACUUCGACCAAUCGGUC [Fam1B.1 aminoacylation ribozyme variant]  criterion not met
19  AUUAGCCUGGUCAUCGAGAGA [Fam2.1 aminoacylation ribozyme variant]  criterion not met
20  AGGUCUGCUAAUAGUCGCAAG [Fam3.1 aminoacylation ribozyme variant]      criterion met
21  AUUCACCCAAGUCAUCGGGUG [Fam2.2 aminoacylation ribozyme variant]      criterion met
22  AUUACCCUGGUCAACGACUGA [Fam2.1 aminoacylation ribozyme variant]  criterion not met
23  AAGUAUGCUAAUCGUCGCAAG [Fam3.1 aminoacylation ribozyme variant]  criterion not met
24  AAGUUUUCUACUAGUCGCAAG [Fam3.1 aminoacylation ribozyme variant]  criterion not met
25  ACGUUUGCUAAGAGUCGCAAG [Fam3.1 aminoacylation ribozyme variant]  criterion not met
26  GUUCAUCUAGGUCAUCGGGUG [Fam2.2 aminoacylation ribozyme variant]      criterion met
27  AUUCUCCUAGGUCAUCGGGUU [Fam2.2 aminoacylation ribozyme variant]      criterion met
28  AAGUUUGCUAAUCGGCGCAAG [Fam3.1 aminoacylation ribozyme variant]  criterion not met
29  CUUCUUCAAGCAAUCGGUCUG [Fam1A.1 aminoacylation ribozyme variant]      criterion met

---

Quick reference for self-aminoacylation among some sequences
tested on: biotinyl-Trp-oxazolone; assay: self-aminoacylation, catalytic enhancement (BWO) (fold over background); higher = more active; k-Seq, kA / k0A0; sequences stand for … in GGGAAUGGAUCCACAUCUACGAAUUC…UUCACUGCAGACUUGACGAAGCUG
Fewer inactive variants are shown than the library holds.
reported_endpoint: self-aminoacylation

> print(dat)
                               residue.codes  recorded.number
 1  AAUACCCUGGCCAUCGAGUGA [Fam2.1 aminoacylation ribozyme variant]              3.4
 2  CUACUUCAAACUAUCGGUCUU [Fam1A.1 aminoacylation ribozyme variant]            0.796
 3  AUUCACCUAGGUAAUCGCGUG [Fam2.2 aminoacylation ribozyme variant]             2.74
 4  CUUACCCUGGUCAUCGAGUCA [Fam2.1 aminoacylation ribozyme variant]            0.547
 5  AAGUUUGCUAGCAGUCGCAAG [Fam3.1 aminoacylation ribozyme variant]             0.91
 6  GAGUUGGCUAAUAGUCGCAAG [Fam3.1 aminoacylation ribozyme variant]             3.02
 7  AAUCACCUAGGUCAUCGGGUU [Fam2.2 aminoacylation ribozyme variant]             5.39
 8  AUUCACCUAGGUCAUAGGGUG [Fam2.2 aminoacylation ribozyme variant]             1.49
 9  CCACACUUCAAGCAGACGGUC [Fam1B.1 aminoacylation ribozyme variant]            0.539
10  AUUACCCUAGUCAUCGGGUGA [Fam2.1 aminoacylation ribozyme variant]             9.08
11  CCACACUGCAAGCAAUCGGUA [Fam1B.1 aminoacylation ribozyme variant]             2.33
12  AUUCACUUAGGUCCUCGGGUG [Fam2.2 aminoacylation ribozyme variant]             4.66
13  AACUUCGCUAAUAGUCGCAAG [Fam3.1 aminoacylation ribozyme variant]             3.06
14  CUACUUCACACAAUCGUUCUG [Fam1A.1 aminoacylation ribozyme variant]            0.392
15  AUUACCCCGGUCAUCGAGGGA [Fam2.1 aminoacylation ribozyme variant]             1.67
16  AUUACCCUGGUCAUAGAGUCA [Fam2.1 aminoacylation ribozyme variant]            0.529
17  AUAACCCUGGCCAUCGAGUGA [Fam2.1 aminoacylation ribozyme variant]             3.57
18  AUUACCCUGGACACCGAGUGA [Fam2.1 aminoacylation ribozyme variant]             3.99
19  ACUACCCGGGUCAUCGAGUGA [Fam2.1 aminoacylation ribozyme variant]             8.27
20  AAGUUUGCUCAUUGUCGCAAG [Fam3.1 aminoacylation ribozyme variant]             1.89
21  AUUGACCUAGAUCAUCGGGUG [Fam2.2 aminoacylation ribozyme variant]             3.51

---

test system: biotinyl-Met-oxazolone; experiment: self-aminoacylation, catalytic enhancement (BMO) (fold over background); higher = more active; k-Seq, kA / k0A0; sequences stand for … in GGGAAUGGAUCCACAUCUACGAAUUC…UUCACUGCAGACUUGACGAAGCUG
Fewer inactive variants are shown than the library holds.
reported_endpoint: self-aminoacylation

> print(dat)
                               residue.codes  recorded.number
 1  AAGUUUGAUAAUAGUCGCAAA [Fam3.1 aminoacylation ribozyme variant]             1.08
 2  AUUACCCUGGUCAUCGAGUAU [Fam2.1 aminoacylation ribozyme variant]             26.9
 3  UAGUUUGCUAAUAGUCGCUAG [Fam3.1 aminoacylation ribozyme variant]             1.01
 4  AAUACCCUGGCCAUCGAGUGA [Fam2.1 aminoacylation ribozyme variant]             2.08
 5  AAGUUUGCUAAGAGUCGCAAA [Fam3.1 aminoacylation ribozyme variant]             1.25
 6  AAGUUUGCAAAUAGCCGCAAG [Fam3.1 aminoacylation ribozyme variant]            0.737
 7  AAUCACCUAGGGCAUCGGGUG [Fam2.2 aminoacylation ribozyme variant]             3.75
 8  AAGUUUGCUAAAAGUCGCAAC [Fam3.1 aminoacylation ribozyme variant]              1.1
 9  AUGUUUACUAAUAGUCGCAAG [Fam3.1 aminoacylation ribozyme variant]             1.61
10  AUUCACCGCGGUCAUCGGGUG [Fam2.2 aminoacylation ribozyme variant]             7.49
11  AUGUUUGCUAGUAGUCGCAAG [Fam3.1 aminoacylation ribozyme variant]             1.15

Cited source for all entries: the supplement of paper PMC9233669
